Target: Tyrosyl-DNA phosphodiesterase 2 (Homo sapiens)
Experiment: blockers of TDP2 phosphodiesterase activity – biochemical, epi absorbance, recombinant enzyme, primary screen (AID 720702);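 note: 0% = DMSO with enzyme and 100% = buffer with substrate but no TDP2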
Conditions: recombinant TDP2, T5PNP hydrolysis, p-nitrophenol absorbance 415 nm; at 12.8 µM
Out of some 370,000 compounds screened, about 1,200 (0.32%) were called active.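 Rule for the calls: active = inhibition above the mean of all tested compounds plus 3 SD, set per campaign (cut at about 25% in these data); inactive = the rest.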 The full list was thinned out, with actives kept by preference.
// classify into 1 for active, -1 for inactive

Use the examples below as a reference point.
1) CCOc1c(Br)cc(/C=C2\C(=O)N(CCC#N)N=C2C)cc1OC :: 1
2) CC1(OC(=O)C2CCCC2)C(=O)C=C2C=C(c3ccc(C#N)cc3)OC=C2C1=O (centres undefined) :: -1
3) Cc1cc(C)nc(SC2CCCCC2NS(=O)(=O)c2ccc(Cl)cc2)n1 (centres undefined) :: -1
4) CCOC(=O)C1=C(C)c2ccccc2OC1C(=O)OCC (centres undefined) :: -1
5) CCCCC1=CC2=CC(=O)C(C)(OC(=O)CC)C(=O)C2=CN1CCCOC(C)C (centres undefined) :: -1

Answer briefly: the call reported for "CCCCCc1ccc(-c2ccc(OCC)cc2)nc1" in this assay.
-1

Query: recorded result category for "C[C@H]1[C@H](NC(=O)c2cccc(N(C)C)c2)CC[C@@]23CCCN2C(=O)CCC[C@@H]13" in this test
-1

Name the outcome recorded for "Cc1nc(CNc2ncnc3ccc(-c4ccc5c(c4)OCO5)cc23)cs1" in the assay.
-1

Returns: the outcome recorded for "Oc1ccc(N=Cc2sc3ccccc3c2Cl)cc1" in this assay.
1

Recorded test call requested for "CCc1ccc(-c2nn(-c3ccccc3)cc2CSC(=N)N)cc1"
-1

Hi, sorry to bother you, what did the test record for "O=S(=O)(c1ccc2c(c1)OCCCO2)N1CCN(S(=O)(=O)c2c(F)cccc2F)CC1" ?
-1

Each molecule tested received a call. Report the one for "CC[C@@H](CCC(=O)N(c1ccccc1)c1ccccc1)C1CC1" .
-1

Record request — test call for "Cc1ccc(S(=O)(=O)N2CCC(C(=O)NCCC3=CCCCC3)CC2)cc1C"
1

Tell me the assay call for "O=C(NCc1ccccc1)[C@H]1CCCN1C(=O)[C@@H]1CCCN1C(=O)c1ccc(Cl)cc1Cl" please.
-1

Entry "COc1ccc(N2CCN(CCNS(=O)(=O)c3ccc(Cl)s3)CC2)cc1" : call = ?
-1

Hi team, can someone confirm the assay call for COc1ccc(C2Nc3ccccc3C(=O)N2Cc2cccs2)cc1COc1c(C)cccc1C (centres undefined) ?
-1

Hello, I am checking results. What call was entered for "O=C(Nc1nccs1)C1CCN(S(=O)(=O)c2ccc(Cl)c(C(F)(F)F)c2)CC1" ?
-1

Check the results log: what was the call for "COc1ccc(C)cc1NC(=S)Nc1ccccc1SC" ?
-1

Which result was noted for this molecule in the test: "Clc1ccc(-n2c(COc3ccccc3)nnc2SCc2nc3ccccc3[nH]2)cc1"
-1

Just curious, what result did "CCC[C@H]1C(=O)CC[C@@]23CCCN2C(=O)CCC[C@@H]13" get here?
-1

Write down the call the test reported for this molecule. Item: O=C1C2C3C=CC(C4CC34)C2C(=O)N1/N=C/c1ccc(-c2ccccc2[N+](=O)[O-])o1 (centres undefined)
-1

Which outcome was assigned to CCN(CC)CCN1C(=O)C2C(C(=O)Nc3ccc(Br)cc3)C3C=CC2(O3)C1C(=O)NC1CCCCC1 (centres undefined) in this test?
1

So what was the verdict on "COc1ccccc1CCn1cnc(-c2ccccc2)c1C(C)C" in this test?
-1

# outcome recorded in this test, key = "CCc1ccccc1NC(=S)Nc1cc(OC)c(NC(=O)C(C)C)cc1OC"
1

Which outcome was entered for the molecule CC(C)(C)NC(=O)C(c1cccnc1)N(C(=O)c1cnco1)c1ccc(C(C)(C)C)cc1 (centres undefined) in this test?
-1

Where do the numbers come from? From PubChem BioAssay AID720702.
